# assayed-system: MspA-PBA (boronic acid appended hetero-octameric MspA) (Mycolicibacterium smegmatis, UniProt A0QR29, D117C/D118N/D120N/D145R/D161R/E166K)
# Construct: H6 (hexa-histidine) (C); 3-(maleimide) phenylboronic acid (MPBA) adduct on the thiol of Cys90; made in house; host or cells: E. coli BL21 (DE3) pLysS, co-expression from pETDuet-1
# Sequence (A0QR29 other isoform, or with tags, fused parts or gaps D117N/D118N/D120N/D145R/D161R/E166K): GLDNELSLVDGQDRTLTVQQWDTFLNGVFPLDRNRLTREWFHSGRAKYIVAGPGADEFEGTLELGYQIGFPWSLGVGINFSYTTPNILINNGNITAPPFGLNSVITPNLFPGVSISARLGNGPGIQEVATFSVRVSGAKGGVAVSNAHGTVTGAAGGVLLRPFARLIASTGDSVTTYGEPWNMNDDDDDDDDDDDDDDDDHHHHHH
# Sequence (A0QR29 other isoform, or with tags, fused parts or gaps D117C/D118N/D120N/D145R/D161R/E166K): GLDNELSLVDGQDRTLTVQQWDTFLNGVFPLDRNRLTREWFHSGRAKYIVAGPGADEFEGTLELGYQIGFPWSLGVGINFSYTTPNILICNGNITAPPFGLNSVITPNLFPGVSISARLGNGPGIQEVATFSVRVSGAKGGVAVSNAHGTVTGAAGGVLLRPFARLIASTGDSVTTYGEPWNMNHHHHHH
# test: Single channel recording of alditol binding to MspA-PBA nanopore (standards and zero-sugar drinks)
# Design: species or system Mycobacterium smegmatis
# experimental-parameters: +100 mV, alditol 4 mM (glycerol 8 mM) in cis, N=3
// label = 1 if std (standard deviation of the blocking level) is not less than 6 pA, otherwise -1

OCC(O)CO [glycerol]; -1
OC[C@@H](O)[C@@H](O)[C@@H](O)[C@@H](O)CO [allitol]; -1
OC[C@@H](O)[C@H](O)[C@@H](O)CO [xylitol]; 1

# input for lookup
Item OC[C@@H](O)[C@H](O)[C@H](O)[C@H](O)CO [talitol] with std (standard deviation of the blocking level) of 6 pA or above?
1

Values were extracted from patent US20240418701A1.
